The reported numbers originate from patent US20210171616A1.

- TESTED ON: T1, PACAP38 (human, K at residue 38 modified by C-terminal amidation)
- T1 peptide: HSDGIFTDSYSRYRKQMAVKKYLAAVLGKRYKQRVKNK
- TEST: cell-based or functional assay
TEST READOUT: Inhibition (IC50) of PACAP38 (800 pM) induced cAMP in hVPAC2 CHO-K1 cells
Just the number in pM, nothing appended.

Exercise: Please give the measured Inhibition (IC50) of PACAP38 (800 pM) induced cAMP in hVPAC2 CHO-K1 cells for this binder: Exemplified Antibody A (antibody, human IgG4 S228P, kappa, F234A L235A, V domains shown, IgG4, kappa light chain; also called Exemplified Ab A; Ab A) VH: EVQLLESGGGLVQPGGSLRLSCAASGFTFSSYYMSWVRQAPGKGLEWVSAISLSGGSTYYADSHKGRFTISRDNSKNTLYLQMNSLRAEDTAVYYCVREVGASNHNYYGMDVWGQGTMVTVSS VL: DIQMTQSPSSLSASVGDRVTITCRASQSISRWLAWYQQKPGKAPKLLIHDASQLLEGVPSRFSGSGSGTDFTFTISSLQPEDIATYYCQQFDLLPLTFGGGTKVEIKR
Solution: 714

***
Exercise: Quick one: Inhibition (IC50) of PACAP38 (800 pM) induced cAMP in hVPAC2 CHO-K1 cells for Exemplified Antibody C (antibody, human IgG4 S228P, kappa, F234A L235A, V domains shown, IgG4, kappa light chain; also called Exemplified Ab C; Ab C) VH: EVQLLESGGGLVQPGGSLRLSCAASGFTFSSYYMSWVRQAPGKGLEWVSAISLSGGSTYYAESHKGRFTISRDNSKNTLYLQMNSLRAEDTAVYYCVREVGASTHNYYGMDVWGQGTMVTVSS VL: DIQMTQSPSSLSASVGDRVTITCRASQSIWRWLAWYQQKPGKAPKLLIHDASQLFEGVPSRFSGSGSGTDFTFTISSLQPEDIATYYCQQFDLLPLTFGGGTKVEIKR ?
Solution: 325

Exercise: Query (binder): Exemplified Antibody D (antibody, human IgG4 S228P, kappa, F234A L235A, V domains shown, IgG4, kappa light chain; also called Exemplified Ab D; Ab D) VH: EVQLLESGGGLVQPGGSLRLSCAASGFTFSSYYMSWVRQAPGKGLEWVSAISLSGGSTYYAQSHKGRFTISRDNSKNTLYLQMNSLRAEDTAVYYCVREVGASTHNYYGMDVWGQGTMVTVSS VL: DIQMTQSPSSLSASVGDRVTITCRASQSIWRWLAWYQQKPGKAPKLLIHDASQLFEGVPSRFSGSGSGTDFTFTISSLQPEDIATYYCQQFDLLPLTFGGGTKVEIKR ; field requested: Inhibition (IC50) of PACAP38 (800 pM) induced cAMP in hVPAC2 CHO-K1 cells
Solution: 243

Exercise: Quick check: Inhibition (IC50) of PACAP38 (800 pM) induced cAMP in hVPAC2 CHO-K1 cells of Exemplified Antibody B (antibody, human IgG4 S228P, kappa, F234A L235A, V domains shown, IgG4, kappa light chain; also called Exemplified Ab B; Ab B) VH: EVQLLESGGGLVQPGGSLRLSCAASGFTFSSYYMSWVRQAPGKGLEWVSAISLSGGSTYYAASHKGRFTISRDNSKNTLYLQMNSLRAEDTAVYYCVREVGASTHNYYGMDVWGQGTMVTVSS VL: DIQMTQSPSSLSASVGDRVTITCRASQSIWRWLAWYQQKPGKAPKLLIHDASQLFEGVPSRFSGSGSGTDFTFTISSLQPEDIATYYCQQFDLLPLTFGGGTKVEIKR ?
Solution: 294
